# Test system: CD137 (R&D Systems) (UniProt Q07011 24-186, limits assumed)
# Sequence (Q07011 24-186 limits assumed): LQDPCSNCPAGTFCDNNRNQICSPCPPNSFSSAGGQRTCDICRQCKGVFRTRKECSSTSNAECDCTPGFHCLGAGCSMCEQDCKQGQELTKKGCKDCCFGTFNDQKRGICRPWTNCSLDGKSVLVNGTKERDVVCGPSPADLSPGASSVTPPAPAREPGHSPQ
# Test: ELISA, CD137 coated
Test readout: binding result

1514/1515 (antibody, V domains shown, OX40 antibody, tested as IgG) VH: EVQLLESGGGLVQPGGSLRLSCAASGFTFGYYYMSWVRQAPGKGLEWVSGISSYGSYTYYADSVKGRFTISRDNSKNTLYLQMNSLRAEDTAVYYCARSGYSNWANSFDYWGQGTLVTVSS VL: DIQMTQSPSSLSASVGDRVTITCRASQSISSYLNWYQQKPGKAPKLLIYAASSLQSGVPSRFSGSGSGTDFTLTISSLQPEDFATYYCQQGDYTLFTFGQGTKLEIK :: no binding
1482/1483 (antibody, V domains shown, OX40 antibody, tested as IgG) VH: EVQLLESGGGLVQPGGSLRLSCAASGFTFSSYAMSWVRQAPGKGLEWVSYISYYSGYTYYADSVKGRFTISRDNSKNTLYLQMNSLRAEDTAVYYCARGYGYLDYWGQGTLVTVSS VL: DIQMTQSPSSLSASVGDRVTITCRASQSISSYLNWYQQKPGKAPKLLIYAASSLQSGVPSRFSGSGSGTDFTLTISSLQPEDFATYYCQQYGSLLTFGQGTKLEIK :: no binding
